test system: SN12C (Kidney Carcinoma); assay: combination Emax (second highest fraction inhibited in the dose matrix, 72 h); higher = more inhibition; extreme values may be limits of the assay
Exercise: state measured combination Emax for each of the compounds provided.

# count of solved cases: 2
NC1(C(=O)N[C@@H](CCO)c2ccc(Cl)cc2)CCN(c2ncnc3[nH]ccc23)CC1 [Capivasertib] + COc1nnc2ccc(N3CCC(c4ccc(OCCN5CCN(C)C(=O)[C@H]5C)cc4)CC3)nn12 [AZD5153] (first compound max 10 µM, 7x7, partner max 1 µM) = 0.152
CN(CCO)CC[C@H](CSc1ccccc1)Nc1ccc(S(=O)(=O)NC(=O)c2ccc(N3CCC([C@@H](O)c4ccccc4-c4ccc(Cl)cc4)CC3)cc2)cc1S(=O)(=O)C(F)(F)F [AZD4320] + C=CCn1c(=O)c2cnc(Nc3ccc(N4CCN(C)CC4)cc3)nc2n1-c1cccc(C(C)(C)O)n1 [AZD1775] (first compound max 1 µM, partner max 1 µM) = 0.322

Next compound, please.
The compound listed as C[C@@H]1COCCN1c1cc(C2([S@](C)(=N)=O)CC2)nc(-c2ccnc3[nH]ccc23)n1 [AZD6738] + Nc1ccn([C@@H]2O[C@H](CO)[C@@H](O)C2(F)F)c(=O)n1 [Gemcitabine] (first compound max 10 µM, 7x7, partner max 0.3 µM) has a reported combination Emax of 0.779

* * *

test system: HT-29 (Colorectal Carcinoma); assay: combination Emax (second highest fraction inhibited in the dose matrix, 72 h); higher = more inhibition; extreme values may be limits of the assay
measurement name: combination Emax
Give bare numbers.

# count of solved cases: 5
Cn1cnc2c(F)c(Nc3ccc(Br)cc3Cl)c(C(=O)NOCCO)cc21 [Selumetinib] + C[C@@H]1COCCN1C2=NC(=NC(=C2)C3(CC3)[S@](=N)(=O)C)C4=C5C=CNC5=NC=C4 [AZD6738] (first compound max 10 µM, 7x7, partner max 10 µM) = 0.862
Cc1cc2ncnn2cc1Nc1ncc2c(n1)n(C1CCOCC1)c(=O)n2C [AZD7648] + C=CCn1c(=O)c2cnc(Nc3ccc(N4CCN(C)CC4)cc3)nc2n1-c1cccc(C(C)(C)O)n1 [AZD1775] (first compound max 10 µM, partner max 1 µM) = 0.816
CCc1c2c(nc3ccc(O)cc13)-c1cc3c(c(=O)n1C2)COC(=O)[C@]3(O)CC [SN-38] + O=C(c1cc(Cc2n[nH]c(=O)c3ccccc23)ccc1F)N1CCN(C(=O)C2CC2)CC1 [Olaparib] (first compound max 0.3 µM, 7x7, partner max 10 µM) = 0.936
Cn1cnc2c(F)c(Nc3ccc(Br)cc3Cl)c(C(=O)NOCCO)cc21 [Selumetinib] + CCN(CCO)CCCOc1ccc2c(Nc3cc(CC(=O)Nc4cccc(F)c4)[nH]n3)ncnc2c1 [AZD2811] (first compound max 10 µM, 7x7, partner max 1 µM) = 0.715
C[C@@H](c1ccc2nccn2c1)n1nnc2ncc(-c3cnn(C)c3)nc21 [Savolitinib] + Cc1c2c(nn1C)CSCc1cc(n(C)n1)CSc1cc(c3ccccc3c1)OCCCc1c(C(=O)O)n(C)c3c-2c(Cl)ccc13 [AZD5991] (first compound max 1 µM, 7x7, partner max 1 µM) = 0.142

# per-item lookup of combination Emax; items listed below
1. Cc1cc2ncnn2cc1Nc1ncc2c(n1)n(C1CCOCC1)c(=O)n2C [AZD7648] + COc1cc([C@@H]2c3cc4c(cc3[C@@H](O[C@@H]3O[C@@H]5CO[C@@H](C)O[C@H]5[C@H](O)[C@H]3O)[C@H]3COC(=O)[C@H]23)OCO4)cc(OC)c1O [Etoposide] (first compound max 10 µM, 7x7, partner max 10 µM)
2. CS(=O)(=O)CCNCc1ccc(-c2ccc3ncnc(Nc4ccc(OCc5cccc(F)c5)c(Cl)c4)c3c2)o1 [Lapatinib] + NC1(c2ccc(-c3nc4ccn5c(=O)[nH]nc5c4cc3-c3ccccc3)cc2)CCC1 [MK-2206] (first compound max 10 µM, 7x7, partner max 10 µM)

1: 0.711; 2: 0.95
